Endpoint summary: IC50, system: Carbonic anhydrase 2 (Homo sapiens), multiple sources combined.
MEASURED ENDPOINT: IC50 (µM)

> print(dat)
                                    molecule  numeric.value
 1  O=C(NN=Cc1ccc(F)cc1)c1ccc(-c2nc3ccccc3[nH]2)cc1           2.74
 2  COc1cc(-c2ccc([N+](=O)[O-])cc2)ccc1O[C@H](C)Cn1cc(-c2ccc(F)cc2)nn1           10.9
 3  NS(=O)(=O)c1ccc(N2N=C(c3ccccc3)CC2c2ccc3c(c2)OCO3)cc1 (centres unmarked)           10.7
 4  NS(=O)(=O)c1ccc(N2N=C(c3ccccc3)CC2c2ccc(O)cc2)cc1 (centres unmarked)        0.00495
 5  NS(=O)(=O)c1ccc(N2N=C(c3ccc(F)cc3)CC2c2ccc(O)cc2)cc1 (centres unmarked)        0.00572
 6  COc1ccc(C=CC(=O)c2ccc3[nH]c(=O)oc3c2)cc1           48.1
 7  NS(=O)(=O)c1ccc(N2N=C(c3ccc(Br)cc3)CC2c2ccccc2)cc1 (centres unmarked)          0.471
 8  COc1cc(OC)c(C2=NN(c3ccc(S(N)(=O)=O)cc3)C(c3ccc4c(c3)OCO4)C2)cc1OC (centres unmarked)           14.3
 9      O=C(C=Cc1ccccc1)c1ccc2[nH]c(=O)oc2c1           40.5
10  COc1cc(Br)ccc1O[C@H](C)Cn1cc(-c2ccc(C(F)(F)F)cc2)nn1           45.1
11  COc1ccc(C2=NN(c3ccc(S(N)(=O)=O)cc3)C(c3ccc4c(c3)OCO4)C2)cc1OC (centres unmarked)           15.2
12  Cn1nc(S(N)(=O)=O)sc1=NC(=O)c1ccc(C(C)(C)C)cc1         0.0072
13  NS(=O)(=O)c1ccc(N2N=C(c3ccc(O)cc3)CC2c2ccccc2)cc1 (centres unmarked)          0.459
14  NS(=O)(=O)c1ccc(N2N=C(c3ccc(Cl)cc3)CC2c2ccc(O)cc2)cc1 (centres unmarked)        0.00425
15  CCCCNc1cc(-c2n[nH]c(=S)n2-c2ccc(Br)cc2)cc(S(N)(=O)=O)c1Oc1ccccc1           0.32
16  COc1cc(-c2ccc(C#N)cc2)ccc1O[C@H](C)Cn1cc(-c2ccc(F)cc2)nn1           21.3
17  COc1cc(Br)ccc1O[C@H](C)Cn1cc(-c2ccccc2)nn1           35.3
